System: Vero E6
Test: drug sensitivity score (DSS) for viability; higher = more toxic; extreme values may be limits of the assay
Details: 72 h
Consider the following compounds; for each one, report its drug sensitivity score.
Numbers only.

Use the examples below as a reference point.
> print(dat)
                                   compound  observed.measurement
1  CCS(=O)(=O)N(C)[C@H]1c2cc(C#N)ccc2OC(C)(C)[C@@H]1O [chromanol-293B-(-)-[3R,4S]]                     0
2  N=C(N)NN=C1C=CC(=NNC(N)=S)C=C1 [ambazone]                     0
3  Nc1ccc(S(=O)(=O)Nc2ccccn2)cc1 [sulfapyridine]                     0
4   c1ccc2c(CC3=NCCN3)cccc2c1 [naphazoline]                     0

For every record below, what is its drug sensitivity score?
1. CCCCCCCCNC(=O)/C(C#N)=C/c1cn(CCCN(C)C)c2ccccc12 [dynole-34-2]
2. O=C(CO)[C@@H](O)[C@@H](O)[C@H](O)CO [tagatose]
3. CN(C)CCN(Cc1cccs1)c1ccccn1 [methapyrilene]
4. Cc1sc(N)c(C(=O)c2cccc(C(F)(F)F)c2)c1C
5. O=C1OC2(c3ccccc31)c1cc(I)c(O)c(I)c1Oc1c2cc(I)c(O)c1I [erythrosine]
6. COc1ccccc1CN[C@H]1CCCN[C@H]1c1ccccc1
7. C1=C2CCCN[C@H]2[C@@H]2C[C@H]1[C@H]1CCCCN1C2 [aloperine]
8. CNC(=N)NCCC[C@H](N)C(=O)O [targinine]

Result block:
1: 0; 2: 0; 3: 0; 4: 0; 5: 3.7; 6: 0; 7: 0; 8: 0.5
